List of IC50 values.
Biological target: CYP2D6 (Homo sapiens (Human), UniProt P10635)
Sequence (P10635 whole entry, species assumed): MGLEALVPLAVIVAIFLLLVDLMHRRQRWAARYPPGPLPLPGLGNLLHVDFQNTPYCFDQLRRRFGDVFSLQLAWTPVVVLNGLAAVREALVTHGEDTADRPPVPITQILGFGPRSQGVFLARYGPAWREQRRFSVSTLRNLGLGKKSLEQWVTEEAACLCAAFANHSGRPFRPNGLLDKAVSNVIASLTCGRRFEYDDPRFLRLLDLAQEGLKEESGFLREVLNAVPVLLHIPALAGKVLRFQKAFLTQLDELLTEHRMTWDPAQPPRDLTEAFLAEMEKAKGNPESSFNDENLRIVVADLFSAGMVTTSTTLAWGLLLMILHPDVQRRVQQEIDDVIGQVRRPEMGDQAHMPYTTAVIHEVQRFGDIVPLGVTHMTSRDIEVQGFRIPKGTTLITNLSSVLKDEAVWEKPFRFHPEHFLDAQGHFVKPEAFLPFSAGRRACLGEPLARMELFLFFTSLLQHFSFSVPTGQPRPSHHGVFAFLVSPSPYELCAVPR
Test: CYP2D6 IC50
Type: in vitro ADME
Conditions: unit given as mM

Cc1ccc(C(=O)Nc2ccc(CN3CCN(CCO)CC3)c(Cl)c2)cc1C#Cc1cnc2cccnn12 [TK3-141]    0.00102 mM
Cc1ccc(C(=O)Nc2ccc(CN3Cc4cn[nH]c4C3)c(Cl)c2)cc1C#Cc1cnc2cccnn12 [ZD-3-167]    0.0137 mM

For this compound ( Cc1cn(-c2cc(NC(=O)c3ccc(C)c(Nc4nccc(-c5cccnc5)n4)c3)cc(C(F)(F)F)c2)cn1 [Nilotinib, reference compound] ), measured IC50 is > 0.1 mM

For this compound ( Cc1ccc(C(=O)Nc2ccc(CN3Cc4ccc(O)cc4C3)c(Cl)c2)cc1C#Cc1cnc2cccnn12 [CD-1-067] ), measured IC50 is 0.00339 mM

For this compound ( Cc1ccc(C(=O)Nc2ccc(CN3CCc4cn[nH]c4C3)c(Cl)c2)cc1C#Cc1cnc2cccnn12 [CD-1-051] ), measured IC50 is 0.03 mM

For this compound ( COCCN1CCN(Cc2ccc(NC(=O)c3ccc(C)c(C#Cc4cnc5cccnn45)c3)cc2C2CC2)CC1 [CD-1-002] ), measured IC50 is 0.0248 mM

For this compound ( Cc1ccc(C(=O)Nc2ccc(CN3CCN(CCO)CC3)c(C3CC3)c2)cc1C#Cc1cnc2cccnn12 [TK3-144] ), measured IC50 is 0.00199 mM

* * *

Molecular target: hERG (Homo sapiens (Human))
Test: hERG profiling, fluorescent Tracer binding competition (FP)
Details: IC50 of Tracer Binding hERG AVERAGE, first run; average of duplicates
Measure name: IC50
Please append the unit to your numeric answer.

COCCN1CCN(Cc2ccc(NC(=O)c3ccc(C)c(C#Cc4cnc5cccnn45)c3)cc2C2CC2)CC1    0.081 µM
Cc1ccc(C(=O)Nc2ccc(CN3CCN(CCO)CC3)c(Cl)c2)cc1C#Cc1cnc2cccnn12    0.345 µM

The molecule Cc1ccc(C(=O)Nc2ccc(CN3CCN(CCO)CC3)c(C3CC3)c2)cc1C#Cc1cnc2cccnn12 , tested on hERG (Homo sapiens (Human)), showed IC50 of 0.103 µM

* * *

List of IC50 values.
Biological target: hERG (Homo sapiens (Human), UniProt Q12809)
Sequence (Q12809 whole entry): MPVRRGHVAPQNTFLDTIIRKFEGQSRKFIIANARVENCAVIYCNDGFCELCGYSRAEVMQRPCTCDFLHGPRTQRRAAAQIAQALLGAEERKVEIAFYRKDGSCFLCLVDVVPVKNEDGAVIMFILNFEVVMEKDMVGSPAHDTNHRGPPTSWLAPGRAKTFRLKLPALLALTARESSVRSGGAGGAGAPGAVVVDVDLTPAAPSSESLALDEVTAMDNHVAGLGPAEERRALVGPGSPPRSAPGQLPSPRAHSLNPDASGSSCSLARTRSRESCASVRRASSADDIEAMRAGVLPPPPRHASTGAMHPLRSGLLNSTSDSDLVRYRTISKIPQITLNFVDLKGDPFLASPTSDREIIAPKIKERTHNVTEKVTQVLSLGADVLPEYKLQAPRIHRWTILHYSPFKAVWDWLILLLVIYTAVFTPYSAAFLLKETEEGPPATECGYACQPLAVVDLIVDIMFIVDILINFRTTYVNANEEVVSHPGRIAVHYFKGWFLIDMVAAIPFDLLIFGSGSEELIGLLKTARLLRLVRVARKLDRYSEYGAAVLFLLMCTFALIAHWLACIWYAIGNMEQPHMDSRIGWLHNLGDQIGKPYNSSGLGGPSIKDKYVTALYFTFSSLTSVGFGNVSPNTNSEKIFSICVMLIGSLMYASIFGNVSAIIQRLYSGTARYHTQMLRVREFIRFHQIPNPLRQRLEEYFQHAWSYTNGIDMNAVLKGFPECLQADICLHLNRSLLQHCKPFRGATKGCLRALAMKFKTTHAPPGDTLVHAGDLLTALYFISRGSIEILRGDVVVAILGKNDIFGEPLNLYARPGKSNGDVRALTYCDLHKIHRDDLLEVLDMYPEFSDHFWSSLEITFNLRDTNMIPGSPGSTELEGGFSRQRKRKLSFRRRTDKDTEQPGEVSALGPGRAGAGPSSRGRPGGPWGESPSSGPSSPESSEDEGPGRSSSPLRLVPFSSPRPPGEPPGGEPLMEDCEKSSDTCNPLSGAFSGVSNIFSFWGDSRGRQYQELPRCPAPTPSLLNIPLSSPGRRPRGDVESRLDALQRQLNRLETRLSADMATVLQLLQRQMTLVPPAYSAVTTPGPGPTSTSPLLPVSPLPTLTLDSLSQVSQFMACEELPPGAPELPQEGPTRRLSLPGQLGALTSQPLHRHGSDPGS
Test: hERG profiling, fluorescent Tracer binding competition (FP)
Conditions: hERG IC50, summary table; unit given as mM
Report only the number, with the unit µM understood.

Worked examples, 3 molecules total:
Cc1ccc(C(=O)Nc2ccc(CN3CCN(CCO)CC3)c(C3CC3)c2)cc1C#Cc1cnc2cccnn12    0.103
COCCN1CCN(Cc2ccc(NC(=O)c3ccc(C)c(C#Cc4cnc5cccnn45)c3)cc2C2CC2)CC1    0.081
Cc1ccc(C(=O)Nc2ccc(CN3CCN(CCO)CC3)c(Cl)c2)cc1C#Cc1cnc2cccnn12    0.345

Note: attention shifts to another entry.
For this molecule ( Cc1ccc(C(=O)Nc2ccc(CN3CCc4cn[nH]c4C3)c(Cl)c2)cc1C#Cc1cnc2cccnn12 ), measured IC50 is 5.02

* * *

Target: hERG (Homo sapiens (Human))
Test: hERG profiling, fluorescent Tracer binding competition (FP)
Details: IC50 of Tracer Binding hERG Data 2, first run
Measure name: IC50 (nM)
Report only the number, with the unit nM understood.

Cc1ccc(C(=O)Nc2ccc(CN3CCN(CCO)CC3)c(C3CC3)c2)cc1C#Cc1cnc2cccnn12    102

The molecule Cc1ccc(C(=O)Nc2ccc(CN3CCN(CCO)CC3)c(Cl)c2)cc1C#Cc1cnc2cccnn12 , tested on hERG (Homo sapiens (Human)), showed IC50 of 552

The molecule COCCN1CCN(Cc2ccc(NC(=O)c3ccc(C)c(C#Cc4cnc5cccnn45)c3)cc2C2CC2)CC1 , tested on hERG (Homo sapiens (Human)), showed IC50 of 100
